# melting point values compiled below
MEASURED ENDPOINT: melting point

CS(=O)(=O)c1ccc(-c2cc(COCCO)nn2CC2CCCCC2)cc1 = 73 to 75 °C
COC(=O)c1ccc(C(C(N)=O)C(C)c2cc([N+](=O)[O-])ccc2N2CCCCC2)cc1 (stereo not given) = 178 to 180 °C
O=c1cc2c(nn1-c1ccc(Cl)cc1)-c1cccnc1CC2 = 166 to 167 °C
O=C(NCc1ccc(Cl)cc1)c1cnc2ccc(CC3CCOCC3)cc2c1O = 184 to 185 °C
Cn1c(=O)c(C#N)c(N2CCNCC2)c2cc(F)ccc21 = 211 °C
CS(=O)(=O)Nc1cccc(-c2ccc(S(=O)(=O)n3ccc(C=CC(=O)NO)c3)cc2)c1 = 137 to 148 °C
CC(C)(C)c1ccc(NS(=O)(=O)c2ccc(N3CCNC3=O)cc2)cc1 = 241 to 243 °C
COC=C(C#N)C(=O)c1cc(F)c(Cl)cc1Cl = 159 °C
O=C(O)Cn1c(C(=O)O)cc(=O)c2c1C(=O)C(O)=C2 = > 270 °C
CC(C)c1ccc(N(Cc2ccc(N(C)C)cc2)C(=O)C2CCS(=O)(=O)c3ccccc32)cc1 (stereo not given) = 185 to 187 °C

* * *

# melting point values compiled below
MEASURED ENDPOINT: melting point

Cc1ccc(NC(=O)c2ccc(O)c(N)c2)cc1C = 220 to 223 °C
Cc1[nH]c2ccccc2c1C1=C(c2c(C)[nH]c3ccccc23)C(=O)N(C)C1=O = > 290 °C
Cn1c(=O)n(CCCC2(C)OCCO2)c(=O)c2c1ncn2Cc1ccccc1 = 104 to 105 °C
COC(=O)c1cc2c(N3CCNCC3)cccc2[nH]1 = 177 to 180 °C
CC1(C)[C@@H](CS(=O)(=O)c2ccc(S(C)(=O)=O)cc2)CC[C@@]1(C)NCC(=O)N1C[C@@H](F)C[C@H]1C#N = 163 to 166 °C
COC(=O)c1cnc(CO)n1C = 145 to 147 °C
COC(=O)Cc1ccc(OCCNC(=O)C2Cc3ccccc3N2S(=O)(=O)c2ccc(-c3cc(C)ccc3F)cc2)cc1 (stereo not drawn) = 55 to 58 °C
O=C1CCN(Cc2ccccc2[N+](=O)[O-])CC1C(c1ccc(F)cc1)c1ccc(F)cc1 (stereo not drawn) = 151 to 152 °C
N#CC(=Cc1ccc2[nH]ccc2c1)S(=O)(=O)c1ccc(OC(F)(F)F)cc1 = 171 to 175 °C
O=C1OC(=O)c2cc3ccc([N+](=O)[O-])cc3c3cccc1c23 = 290 °C
CCc1[nH]n(C2CCCC2)c2nc(Cc3ccc(OCCN4CCOCC4)cc3)nc(=O)c1-2 = 136 to 137 °C
CCCOC(=O)C1=C(C)NC(C)=C(C(=O)OC)C1c1ccccc1[N+](=O)[O-] (stereo not drawn) = 127 to 128 °C
CN(C)c1c(Cl)cc(C(O)CNC(C)(C)C)cc1Cl (stereo not drawn) = 96 to 99 °C
Cc1cc(-c2nc3cc(-c4ccncc4)cc(N)n3n2)oc1C = 275 to 277 °C
COP(=O)(Cc1c(Cl)c(Cl)c(CP(=O)(OC)OC)c(Cl)c1Cl)OC = 179 to 181 °C
COc1ccc(-c2cc(=Nc3c(C)cc(C)cc3C)n(C)c3nncn23)cc1OC = 125 to 130 °C
Cc1cnn(Cc2ccc3c(c2)-c2[nH]nc(-c4ccsc4)c2C3)c1 = 262 to 263 °C
Cc1cccc(NC(=O)NCC2(c3ccccc3)CCCCC2)c1 = 145 to 147 °C
COc1cc(OCc2cccnc2)ccc1/C=C/c1cc(/C=C/c2ccc3[nH]ccc3c2)n[nH]1 = 127 to 135 °C
CCOC(=O)C(=O)c1csc(NC(c2ccccc2)c2ccccc2)n1 = 82 to 85 °C
O=C(O)CCc1oc(/C=C/c2ccccc2)nc1-c1ccccc1 = 138 to 139 °C
COc1ccccc1Oc1c(NS(=O)(=O)c2ccc(C(C)(C)C)cc2)nc(-c2ncccn2)nc1OCCOc1ncc(-c2ccccn2)cn1 = 149 to 157 °C
CCc1cc2c(c(CC)n1)c(C)c(C)c(=O)n2Cc1ccc(-c2ccccc2-c2nnn(C(c3ccccc3)(c3ccccc3)c3ccccc3)n2)cc1 = 159 to 160 °C
CCOC1C(NC(=O)C(F)(F)F)CC(OC)OC1C (stereo not drawn) = 183 to 185 °C
Cc1c(-c2ccccc2)c(N2CC[C@H](N(C)C)C2)c2oc(-c3ccccc3N)nc2c1C#N = 259 to 263 °C
O=Cc1ccc(Br)cc1C=O = 97 to 100 °C
COc1ccc(-c2nc(C(N)(C(F)(F)F)C(F)(F)F)[nH]c2-c2ccc(OC)cc2)cc1 = 127 to 128 °C
O=C(Nc1ccc(-n2nc(C3CC3)cc2C2CC2)cc1)c1ccc2nccnc2c1 = 162 to 167 °C
COc1ccc(OC)c(C=C2NC(=O)NC2=O)c1 = 250 to 252 °C
O=C(NO)c1ccc(CNC(=O)c2[nH]c(-c3ccccc3)cc2-c2ccc(F)c(F)c2)cc1 = 148 to 150 °C
Cn1nnc2c(N3CCOCC3)nc(-c3ccc(NC(=O)Nc4ccsc4)cc3)nc21 = 272 °C
Cn1c(CC(=O)O)cc2c1C(=O)c1sccc1CC2 = 157 to 158 °C
COc1cc(C2c3cc4c(cc3C(NC3=CC(=O)N(Cc5ccc(F)cc5)C3=O)C3COC(=O)C23)OCO4)cc(OC)c1O (stereo not drawn) = 214 to 216 °C
COc1ccc(-n2nnnc2C(F)(F)F)cc1CN[C@H]1CCN(C(=O)CNC(C)=O)C[C@H]1c1ccccc1 = 112 to 115 °C
O=C(O)Cc1cc(OCc2ccccc2)ccc1OCc1ccccc1 = 95.5 to 100 °C
CC(C)c1ccc2c(O)c(C(=O)Nc3ccc(OCC(C)(C)C)c(C#N)c3)sc2n1 = 211 to 212 °C
Clc1cc(N2CCSCC2)nc(Cl)n1 = 118 to 122 °C
Oc1c(Cl)cc2c(-c3ccccc3F)noc2c1Cl = 194 to 196 °C
